system: nitrification; assay: inhibition of nitrification in soil incubation (ammonium and nitrate content after 14 days); conditions: compound at 0.3% of nitrogen N, 20° C., 10 mg ammoniumsulfate-N
Param threshold (50) applies to NI @ 0.3%; output MET when value >= threshold, NOT MET when value < threshold.

Hello, I need to know if C[SiH](C)C#Cc1ccccn1 [No. 2] has measured NI @ 0.3% not below 50. Thanks!
MET

Hello, I need to know if C[Si](C)(C#Cc1ccccn1)O[Si](C)(C)C#Cc1ccccn1 [No. 5] has measured NI @ 0.3% not below 50. Thanks!
MET

Hello, I need to know if C[Si](C)(C#Cc1ccccn1)CCl.Cl [No. 3] has measured NI @ 0.3% not below 50. Thanks!
MET

Hello, I need to know if C[Si](C)(C#Cc1ccccn1)O[Si](C)(C)O[Si](C)(C)O[Si](C)(C)C#Cc1ccccn1 [No. 7] has measured NI @ 0.3% not below 50. Thanks!
NOT MET

Hello, I need to know if C[Si](C)(C)C#Cc1cnccn1 [No. 12] has measured NI @ 0.3% not below 50. Thanks!
MET

Hello, I need to know if Cc1ccc(C#C[Si](C)(C)C)nc1 [No. 11] has measured NI @ 0.3% not below 50. Thanks!
MET

Hello, I need to know if CC(C)(C)[Si](C)(C)C#Cc1ccccn1 [No. 4] has measured NI @ 0.3% not below 50. Thanks!
NOT MET

Hello, I need to know if C[Si](C)(C)C#Cc1ccccn1 [No. 1] has measured NI @ 0.3% not below 50. Thanks!
MET

Hello, I need to know if C[Si](C)(C)C#Cc1ccc(Cl)cn1 [No. 10] has measured NI @ 0.3% not below 50. Thanks!
MET

Hello, I need to know if C[Si](C)(C#Cc1ccccn1)C[Si](C)(C)C#Cc1ccccn1 [No. 8] has measured NI @ 0.3% not below 50. Thanks!
NOT MET

Hello, I need to know if C[Si](C)(C#Cc1ccccn1)c1ccccc1 [No. 9] has measured NI @ 0.3% not below 50. Thanks!
MET
